# system_name: T1, CD3 expressed on cell-surface of primary human T cells (human, UniProt P07766 23-207; P04234 22-171)
# T1 construct: also called cell-surface CD3; human CD3
# protocol_summary: flow cytometry competition vs murine SP34-AF488 on human T cells, n = 1
Attribute: IC50

Record excerpt, results attached:
Requested read-out: IC50. Entry: huSP34.8.6 Fab-HF (Fab, V domains shown) VH: EVQLVESGGGLVQPGGSLRLSCAASGFTFSDYAMNWVRQAPGKGLEWVGRTRSKYNNYATYYAASVKGRFTISRDDSKNSLYLQMNSLKTEDTAVYYCVRHGNFGHSYVSWFAVWGQGTLVTVSS VL: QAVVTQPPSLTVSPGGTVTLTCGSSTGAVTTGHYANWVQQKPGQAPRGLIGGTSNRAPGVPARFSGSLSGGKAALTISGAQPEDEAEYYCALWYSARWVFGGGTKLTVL
> 20 µg/mL

Again, but for huSP34.3.4 Fab-HF (Fab, V domains shown) VH: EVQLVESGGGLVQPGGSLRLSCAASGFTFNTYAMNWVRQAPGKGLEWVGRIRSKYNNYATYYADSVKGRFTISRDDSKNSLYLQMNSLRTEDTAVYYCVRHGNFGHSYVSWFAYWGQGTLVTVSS VL: QAVVTQEPSLTVSPGGTVTLTCGSSTGAVTTSHYANWVQQKPGQAPRGLIGGTSKRAPWTPARFSGSLLGGKAALTLSGAQPEDEAEYYCALWYSALWVFGGGTKLTVL
> 20 µg/mL

Now look at this entry.
Requested read-out: IC50. Entry: huSP34.9.1 Fab-HF (Fab, V domains shown) VH: EVQLVESGGGLVQPGGSLRLSCAASGFTFSDYAMNWVRQAPGKGLEWVGRTRSKYNSYATYYAASVKGRFTISRDDSKNSLYLQMNSLKTEDTAVYYCVRHGNFGNSYVSWFAVWGQGTLVTVSS VL: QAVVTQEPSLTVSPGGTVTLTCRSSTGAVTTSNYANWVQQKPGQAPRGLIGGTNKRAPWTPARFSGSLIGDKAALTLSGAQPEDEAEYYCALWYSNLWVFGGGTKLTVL
> 20 µg/mL
